# Protocol Notes: n-Octanol-water distribution coefficient, log D of the compound at pH 7.4 after 20 mins by UV-spectrphotometric based shake-flask method
# Type: physicochemical
Observation Type: logD at 20 min
# output: bare number, no unit

Entry COc1ccc(C([N+](=O)[O-])[N+](=O)[O-])cc1 — recorded logD at 20 min = -1.21

====

# Protocol Notes: Lipophilicity, log P of the compound by shake flask method
# Format: physicochemical
# Settings: octanol/water
// assign Fulfilled if logP falls strictly below 2, else Not fulfilled (ties count as Not fulfilled)

Input line: Would you kindly verify if logP of CC(c1ccccc1)([N+](=O)[O-])[N+](=O)[O-] is strictly less than 2?
Output line: Not fulfilled

Input line: Would you kindly verify if logP of COc1ccc(C(C)([N+](=O)[O-])[N+](=O)[O-])cc1 is strictly less than 2?
Output line: Not fulfilled

Input line: Would you kindly verify if logP of CC(c1ccc(C(F)(F)F)cc1)([N+](=O)[O-])[N+](=O)[O-] is strictly less than 2?
Output line: Not fulfilled

Input line: Would you kindly verify if logP of COCCOCCOCCOc1ccc(C(C)([N+](=O)[O-])[N+](=O)[O-])cc1 is strictly less than 2?
Output line: Fulfilled

***
Input line: Would you kindly verify if logP of Cc1ccc(C(C)([N+](=O)[O-])[N+](=O)[O-])cc1 is strictly less than 2?
Output line: Not fulfilled
